- Test system: OVCAR-4
- assay.protocol: NCI60 antitumor screening
- Format: cell-based, human
- assay.conditions: Homo sapiens; 10 μM single dose; OVCAR-4 (ovarian cancer); read-out: growth inhibition percent (GI%)
experimental.readout: inhibition at 10 µM

Use the examples below as a reference point.
N#Cc1c(-c2ccc(F)cc2)nc(SCc2ccccc2)nc1N1CCN(c2ccccc2)CC1    < 10%
CN1CCN(c2nc(SCc3ccc([N+](=O)[O-])cc3)nc(-c3ccc(F)cc3)c2C#N)CC1    < 10%

Problem: For Cc1ccc(CSc2nc(-c3ccc(F)cc3)c(C#N)c(N3CCNCC3)n2)cc1 , what is its reported inhibition at 10 µM?
Result: < 10%

###

The reader will find reported GI% values listed item by item below.
- Tested on: SW-620
- assay.protocol: NCI60 antitumor screening
- Format: cell-based, human
- assay.conditions: 10 μM one-dose
Reply with just the number (in %).

N#Cc1c(-c2ccc(F)cc2)nc(SCc2ccc([N+](=O)[O-])cc2)nc1N1CCOCC1    19.46
N#Cc1c(-c2ccc(F)cc2)nc(SCc2ccc(F)cc2)nc1N1CCOCC1    14.48

Problem: Recorded GI% of N#Cc1c(Cl)nc(SCc2ccc([N+](=O)[O-])cc2)nc1-c1ccc(F)cc1 , please.
Result: 37.21

Problem: Same again, this time with N#Cc1c(-c2ccc(F)cc2)nc(SCc2ccc([N+](=O)[O-])cc2)[nH]c1=O
Result: 10.78

Problem: Could you do the same for Cc1ccc(CSc2nc(Cl)c(C#N)c(-c3ccc(F)cc3)n2)cc1 , please?
Result: 11.21

###

- System: UACC-257
- assay.protocol: NCI60 antitumor screening
- Format: cell-based, human
- assay.conditions: 10 μM one-dose
experimental.readout: GI%

Below are worked cases with known answers.
N#Cc1c(-c2ccc(F)cc2)nc(SCc2ccc(F)cc2)[nH]c1=O    — (GI% < 10)
N#Cc1c(Cl)nc(SCc2ccc([N+](=O)[O-])cc2)nc1-c1ccc(F)cc1    24.66%
N#Cc1c(-c2ccc(F)cc2)nc(SCc2ccc([N+](=O)[O-])cc2)[nH]c1=O    — (GI% < 10)
Cc1ccc(CSc2nc(Cl)c(C#N)c(-c3ccc(F)cc3)n2)cc1    — (GI% < 10)
N#Cc1c(-c2ccc(F)cc2)nc(SCc2ccccc2)nc1N1CCOCC1    — (GI% < 10)

Problem: Form field: reported GI% of Cc1ccc(CSc2nc(-c3ccc(F)cc3)c(C#N)c(=O)[nH]2)cc1
Result: — (GI% < 10)

Problem: Again, but for N#Cc1c(Cl)nc(SCc2ccc(F)cc2)nc1-c1ccc(F)cc1
Result: — (GI% < 10)

Problem: Follow-up entry: N#Cc1c(-c2ccc(F)cc2)nc(SCc2ccc(F)cc2)nc1N1CCOCC1
Result: 22.89%

Problem: Item: N#Cc1c(Cl)nc(SCc2ccccc2)nc1-c1ccc(F)cc1
Result: — (GI% < 10)

Problem: Try this compound next: Cc1ccc(CSc2nc(-c3ccc(F)cc3)c(C#N)c(N3CCOCC3)n2)cc1
Result: 17.42%

Problem: For N#Cc1c(-c2ccc(F)cc2)nc(SCc2ccc([N+](=O)[O-])cc2)nc1N1CCOCC1 then?
Result: 45.85%

###

Entries and their GI% values follow.
- System: SF-539
- assay.protocol: NCI60 antitumor screening
- Type: cell-based, human
- assay.conditions: 10 μM one-dose
The reply should be a number in %, with the unit left off.

These recorded examples may help you get a feel for the data.
N#Cc1c(-c2ccc(F)cc2)nc(SCc2ccc(F)cc2)[nH]c1=O [2b]    45.33
N#Cc1c(Cl)nc(SCc2ccc([N+](=O)[O-])cc2)nc1-c1ccc(F)cc1 [3c]    28.21
Cc1ccc(CSc2nc(Cl)c(C#N)c(-c3ccc(F)cc3)n2)cc1 [3d]    15.58
N#Cc1c(-c2ccc(F)cc2)nc(SCc2ccc(F)cc2)nc1N1CCOCC1 [4b]    50.95
N#Cc1c(Cl)nc(SCc2ccccc2)nc1-c1ccc(F)cc1 [3a]    24.06

Problem: Using the record for Cc1ccc(CSc2nc(-c3ccc(F)cc3)c(C#N)c(N3CCOCC3)n2)cc1 [4d] , report its GI%.
Result: 32.27

Problem: Item: N#Cc1c(-c2ccc(F)cc2)nc(SCc2ccccc2)nc1N1CCOCC1 [4a]
Result: 16.91

###

- System: SK-MEL-2
- assay.protocol: NCI60 antitumor screening
- Type: cell-based, human
- assay.conditions: Homo sapiens; 10 μM single dose; SK-MEL-2 (melanoma); read-out: growth inhibition percent (GI%)
experimental.readout: inhibition at 10 µM

Problem: Item under review: CN1CCN(c2nc(SCc3ccc([N+](=O)[O-])cc3)nc(-c3ccc(F)cc3)c2C#N)CC1 . Reported inhibition at 10 µM?
Result: < 10%

###

- Tested on: OVCAR-4
- assay.protocol: NCI60 antitumor screening
- Format: cell-based, human
- assay.conditions: 10 μM one-dose, Table 1
experimental.readout: GI%

CN1CCN(c2nc(SCc3ccc(F)cc3)nc(-c3ccc(F)cc3)c2C#N)CC1    — (GI value > 70%)
N#Cc1c(-c2ccc(F)cc2)nc(SCc2ccc(F)cc2)[nH]c1=O    73.14%
CN1CCN(c2nc(SCc3ccccc3)nc(-c3ccc(F)cc3)c2C#N)CC1    — (GI value > 70%)
N#Cc1c(-c2ccc(F)cc2)nc(SCc2ccc(F)cc2)nc1N1CCOCC1    — (GI value > 70%)
N#Cc1c(-c2ccc(F)cc2)nc(SCc2ccc([N+](=O)[O-])cc2)nc1N1CCOCC1    — (GI value > 70%)

The record that follows has no GI% shown yet.
Problem: Look up GI%: Cc1ccc(CSc2nc(-c3ccc(F)cc3)c(C#N)c(N3CCOCC3)n2)cc1
Result: — (GI value > 70%)

###

- System: HOP-92
- assay.protocol: NCI60 antitumor screening
- Format: cell-based, human
- assay.conditions: Homo sapiens; 10 μM single dose; HOP-92 (non-small cell lung cancer); read-out: growth inhibition percent (GI%)
Known inhibition at 10 µM of a selection of compounds

Take a look at these entries with their results.
N#Cc1c(-c2ccc(F)cc2)nc(SCc2ccccc2)nc1N1CCN(c2ccccc2)CC1    < 10%
N#Cc1c(-c2ccc(F)cc2)nc(SCc2ccc(F)cc2)nc1N1CCNCC1    > 100%
N#Cc1c(-c2ccc(F)cc2)nc(SCc2ccccc2)nc1N1CCNCC1    > 100%
Cc1ccc(CSc2nc(-c3ccc(F)cc3)c(C#N)c(N3CCN(c4ccccc4)CC3)n2)cc1    < 10%
CN1CCN(c2nc(SCc3ccccc3)nc(-c3ccc(F)cc3)c2C#N)CC1    22.7%
Cc1ccc(CSc2nc(-c3ccc(F)cc3)c(C#N)c(N3CCN(C)CC3)n2)cc1    39.3%

Problem: Which inhibition at 10 µM value is on record for N#Cc1c(-c2ccc(F)cc2)nc(SCc2ccc([N+](=O)[O-])cc2)nc1N1CCNCC1 ?
Result: < 10%

Problem: Also N#Cc1c(-c2ccc(F)cc2)nc(SCc2ccc(F)cc2)nc1N1CCN(c2ccccc2)CC1 ?
Result: < 10%

Problem: Can you handle N#Cc1c(-c2ccc(F)cc2)nc(SCc2ccc([N+](=O)[O-])cc2)nc1N1CCN(c2ccccc2)CC1 next?
Result: < 10%

###

inhibition at 10 µM reference
- Test system: IGROV1
- assay.protocol: NCI60 antitumor screening
- Type: cell-based, human
- assay.conditions: Homo sapiens, IGROV-1; 10 μM single dose; IGROV1 (ovarian cancer); read-out: growth inhibition percent (GI%)

Example entries begin here.
N#Cc1c(-c2ccc(F)cc2)nc(SCc2ccccc2)nc1N1CCNCC1    > 100%
N#Cc1c(-c2ccc(F)cc2)nc(SCc2ccc([N+](=O)[O-])cc2)nc1N1CCN(c2ccccc2)CC1    < 10%
CN1CCN(c2nc(SCc3ccccc3)nc(-c3ccc(F)cc3)c2C#N)CC1    < 10%
CN1CCN(c2nc(SCc3ccc(F)cc3)nc(-c3ccc(F)cc3)c2C#N)CC1    16.9%
N#Cc1c(-c2ccc(F)cc2)nc(SCc2ccc([N+](=O)[O-])cc2)nc1N1CCNCC1    < 10%
N#Cc1c(-c2ccc(F)cc2)nc(SCc2ccc(F)cc2)nc1N1CCN(c2ccccc2)CC1    < 10%
CN1CCN(c2nc(SCc3ccc([N+](=O)[O-])cc3)nc(-c3ccc(F)cc3)c2C#N)CC1    < 10%
Cc1ccc(CSc2nc(-c3ccc(F)cc3)c(C#N)c(N3CCN(c4ccccc4)CC3)n2)cc1    < 10%

Problem: Item N#Cc1c(-c2ccc(F)cc2)nc(SCc2ccccc2)nc1N1CCN(c2ccccc2)CC1 with IGROV1 - inhibition at 10 µM?
Result: < 10%

Problem: Now try Cc1ccc(CSc2nc(-c3ccc(F)cc3)c(C#N)c(N3CCN(C)CC3)n2)cc1 .
Result: < 10%

Problem: Repeat for the following molecule: N#Cc1c(-c2ccc(F)cc2)nc(SCc2ccc(F)cc2)nc1N1CCNCC1
Result: > 100%

Problem: Repeat with Cc1ccc(CSc2nc(-c3ccc(F)cc3)c(C#N)c(N3CCNCC3)n2)cc1
Result: < 10%
